Test system: Saccharomyces cerevisiae;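 note: PSI is a weighted mean of sequencing reads over stability bins, variants kept only with over 10 reads, mCherry proximal and sfGFP distal, peptide attached via GGGS linker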
protocol-description: protein stability index of tFT-peptide fusion (C-terminal peptide) (PSI (0-1 scale)); higher = more stable (slower turnover)
condition-set: genetic background: wild type; temperature: 30 C
Mark Not fulfilled for protein stability index values under 0.7, and Fulfilled for everything at or above.

> print(dat)
            seq  assigned.class
1  LYCGLIFFLRGV   Not fulfilled
2  PPAPPPLPPPTH   Not fulfilled
3  KARNIVESGKTQ       Fulfilled
4  PAPVFPILTPPY       Fulfilled
5  PLCLPALPPPLP   Not fulfilled

Could you please find out whether WAGGGFVVGCVG has protein stability index that meets 0.7 or exceeds it? Not fulfilled

Decide: is the reported value of protein stability index for PPPPSLPTPRPP equal to or greater than 0.7? Not fulfilled

Decide: is the reported value of protein stability index for VLVGRAGIVFLG equal to or greater than 0.7? Not fulfilled
